# Test system: CUG foci in primary DM1 patient myoblasts
# measurement_protocol: Dual-cut screening: FISH staining of CUG RNA foci
# Format: cell-based, human
# experimental_parameters: sgRNA pair; primary DM1 patient myoblasts; vehicle (DMSO)
value_type: % of CUG foci free nuclei (Vehicle)
Write the numeric value and append its unit.

substance	measurement
SluU10 + SluD56 (guide 1 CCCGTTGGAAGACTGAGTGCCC; guide 2 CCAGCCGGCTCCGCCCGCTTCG; guide RNA; listed as DNA, chemistry not fully specified)	49.83%
SluU63 + SluD56 (guide 1 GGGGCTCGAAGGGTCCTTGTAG; guide 2 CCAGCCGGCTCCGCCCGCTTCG; guide RNA; listed as DNA, chemistry not fully specified)	60.91%

Continue with the substance presented below.
Qu. Item under review: SluU63 + SluD100 (guide 1 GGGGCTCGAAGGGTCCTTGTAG; guide 2 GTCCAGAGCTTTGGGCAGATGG; guide RNA; listed as DNA, chemistry not fully specified) . Reported % of CUG foci free nuclei (Vehicle)?
Ans. 73.15%
